System: NCI-H522 lung
runDescription: NCI tumour cell line growth inhibition, 48 h
experimentalEndpoint: TGI

compound	reading
O=C(O)C1=NN(c2ccc(S(=O)(=O)O)cc2)C2(C1)C(Cl)C(=O)N2c1nc2ccccc2s1 (stereo unspecified)	25.8 µM
NCCCCNCCCNC(=O)CNC(=O)CC(O)C(N)CCCC(NC(=O)C(CN)NC(=O)C(O)CNC(=O)CC(N)c1ccc(O)cc1)C(=O)O (stereo unspecified)	> 10 µM
CNC(=O)Nc1ccc(-c2nc(N3CCOCC3)nc3c2cnn3C2CCOCC2)cc1	> 100 µM
O=C(CCc1nc(=S)[nH][nH]1)NC12CC3CC(CC(C3)C1)C2	> 100 µM
COc1ccc(-n2nnc3c(sc4ccccc43)c2=O)cc1	> 100 µM

Consider the compound CC(C)N(C(C)C)[PH+]1O[PH+](N(C(C)C)C(C)C)O[PH+](N(C(C)C)C(C)C)O[PH+](N(C(C)C)C(C)C)O[PH+](N(C(C)C)C(C)C)O1.[C-]#[O+].[C-]#[O+].[C-]#[O+].[C-]#[O+].[C-]#[O+].[C-]#[O+].[C-]#[O+].[Cr].[Cr] (stereo unspecified) and give its measured TGI.
> 100 µM

Consider the compound C[N+]1(CCN=C=NC2CCCCC2)CCOCC1 and give its measured TGI.
> 100 µM

Consider the compound C#C[C@]1(O)CC[C@H]2[C@@H]3CC=C4c5nc(Nc6ccccn6)sc5CC[C@]4(C)[C@H]3CC[C@@]21C and give its measured TGI.
4.12 µM

Consider the compound N=C(N)SCc1cn2ccccc2n1 and give its measured TGI.
> 100 µM

Consider the compound Oc1c(OCc2nnc(CCCCCCCCc3nnc(COc4ccc5ccccc5c4O)o3)o2)ccc2ccccc12 and give its measured TGI.
> 100 µM

Consider the compound CCc1nc(N)nc(N)c1-c1ccc([N+](=O)[O-])c(NCc2ccccc2)c1 and give its measured TGI.
35.6 µM

Consider the compound C=C1C[C@@H]2CC[C@@]34C[C@H]5O[C@H]6[C@@H](O3)[C@H]3O[C@H](CC[C@@H]3O[C@H]6[C@H]5O4)CC(=O)C[C@@H]3[C@@H](OC)[C@@H](C[C@H](O)CN)O[C@H]3C[C@H]3O[C@@H](CC[C@@H]1O2)C[C@@H](C)C3=C and give its measured TGI.
0.0412 µM

Consider the compound COC(=O)C1=C(OC(=O)c2ccc(Cl)cc2)C(C(=O)OC)[C@@]2(O)[C@@H](C(=O)OC)C(c3ccccc3C(F)(F)F)C[C@@H]1[C@@H]2C(=O)OC (stereo partly specified) and give its measured TGI.
43.6 µM
